# assay_procedure: In vivo oral pharmacokinetic study of RPG without or with QCT in rats
# Set-up: species or system Sprague-Dawley rats
# experimental_context: Sprague-Dawley, rat, plasma, po, 0.4 mg/kg, rats, RPG 0.4 mg/kg oral, RPG alone
# Method: Rats were anesthetized via intramuscular injection of 10 mg/kg zoletil. The femoral vein and artery of the rats were cannulated using a polyethylene tube (BD Medical, Franklin Lakes, NJ, USA). […] For comparison, the extent of absolute oral bioavailability (F; expressed as percent of dose administered) was calculated by dividing the dose-normalized AUC after oral administration by the dose-normalized AUC after intravenous injection. […]

{"compound": "CCOc1cc(CC(=O)N[C@@H](CC(C)C)c2ccccc2N2CCCCC2)ccc1C(=O)O [RPG, Repaglinide]", "Cmax / ng/mL": 129}

---

# assay_procedure: In vivo oral pharmacokinetic study of RPG without or with QCT in rats
# Set-up: species or system Sprague-Dawley rats
# experimental_context: Sprague-Dawley, rat, plasma, po, 0.4 mg/kg, rats, RPG 0.4 mg/kg oral with QCT 100 mg/kg oral

{"compound": "CCOc1cc(CC(=O)N[C@@H](CC(C)C)c2ccccc2N2CCCCC2)ccc1C(=O)O [RPG, Repaglinide]", "half-life": "148 min"}

---

# assay_procedure: In vivo oral pharmacokinetic study of RPG without or with QCT in rats
# Parameters: species or system Sprague-Dawley rats
# experimental_context: Sprague-Dawley, rat, plasma, po, 0.4 mg/kg; read-out: Tmax, median (range) (converted)

{"compound": "CCOc1cc(CC(=O)N[C@@H](CC(C)C)c2ccccc2N2CCCCC2)ccc1C(=O)O [RPG, Repaglinide]", "Tmax": "45 min"}

---

# assay_procedure: In vivo intravenous pharmacokinetic study of RPG without or with QCT in rats
# Parameters: species or system Sprague-Dawley rats
# experimental_context: Sprague-Dawley, rat, plasma, iv, 0.4 mg/kg, RPG 0.4 mg/kg iv with QCT 25 mg/kg iv

{"molecule": "CCOc1cc(CC(=O)N[C@@H](CC(C)C)c2ccccc2N2CCCCC2)ccc1C(=O)O [RPG, Repaglinide]", "half-life [min]": 57.4}

---

# assay_procedure: In vivo oral pharmacokinetic study of RPG without or with QCT in rats
# Parameters: species or system Sprague-Dawley rats
# experimental_context: Sprague-Dawley, rat, plasma, po, 0.4 mg/kg, rats, RPG 0.4 mg/kg oral, RPG alone
measured_quantity: half-life (h)

{"compound": "CCOc1cc(CC(=O)N[C@@H](CC(C)C)c2ccccc2N2CCCCC2)ccc1C(=O)O [RPG, Repaglinide]", "quantity_unit": "h", "endpoint_value": 2.32}

---

# assay_procedure: In vivo intravenous pharmacokinetic study of RPG without or with QCT in rats
# Set-up: species or system Sprague-Dawley rats
# experimental_context: Sprague-Dawley, rat, plasma, iv, 0.4 mg/kg, RPG 0.4 mg/kg iv, RPG alone
# Method: Rats were anesthetized via intramuscular injection of 10 mg/kg zoletil. The femoral vein and artery of the rats were cannulated using a polyethylene tube (BD Medical, Franklin Lakes, NJ, USA). […] The vehicle solutions for the intravenous and oral doses were composed of PEG 400 and aqueous 0.3% CMC solution (50:50 v/v). […]

{"compound": "CCOc1cc(CC(=O)N[C@@H](CC(C)C)c2ccccc2N2CCCCC2)ccc1C(=O)O [RPG, Repaglinide]", "half-life / min": 40.8}

---

# assay_procedure: Plasma protein binding by rapid equilibrium dialysis (human plasma)
# Assay type: in vitro ADME
# experimental_context: human, plasma (20-fold diluted); Table S3, in-house; species not printed (clinical prediction); read-out: fu,QCT

{"compound_string": "O=c1c(O)c(-c2ccc(O)c(O)c2)oc2cc(O)cc(O)c12", "fraction unbound at 4 h, 5 μM": 0.0462}

---

# Test system: microsomal metabolism of RPG (repaglinide)
# assay_procedure: In vitro inhibition of RPG metabolism by QCT in HLM
# Type: in vitro ADME, human
# experimental_context: human, human liver microsomes, probe RPG (repaglinide); Table S3, S = 5 μM; read-out: Calculated Ki, (fu,mic,QCT × IC50) / (S / Km + 1)
pKi: −log10 of the molar value.

{"compound_string": "O=c1c(O)c(-c2ccc(O)c(O)c2)oc2cc(O)cc(O)c12", "pKi": 6.27}

---

# assay_procedure: In vivo intravenous pharmacokinetic study of RPG without or with QCT in rats
# Design: species or system Sprague-Dawley rats
# experimental_context: Sprague-Dawley, rat, plasma, iv, 0.4 mg/kg, RPG 0.4 mg/kg iv, RPG alone
measured_quantity: clearance (mL/min/kg)

{"molecule": "CCOc1cc(CC(=O)N[C@@H](CC(C)C)c2ccccc2N2CCCCC2)ccc1C(=O)O [RPG, Repaglinide]", "measured_quantity": "clearance", "endpoint_value": 7.92}

---

# assay_procedure: In vivo intravenous pharmacokinetic study of RPG without or with QCT in rats
# Design: species or system Sprague-Dawley rats
# experimental_context: Sprague-Dawley, rat, plasma, iv, 0.4 mg/kg, RPG 0.4 mg/kg iv with QCT 25 mg/kg iv, read-out: Vss
measured_quantity: Vd (L/kg)

{"compound": "CCOc1cc(CC(=O)N[C@@H](CC(C)C)c2ccccc2N2CCCCC2)ccc1C(=O)O [RPG, Repaglinide]", "quantity_unit": "L/kg", "endpoint_value": 0.269}

---

# Test system: microsomal metabolism of RPG (repaglinide)
# assay_procedure: In vitro inhibition of RPG metabolism by QCT in RLM
# Type: in vitro ADME, rat
# experimental_context: rat, rat liver microsomes, probe RPG (repaglinide), 3 μM

{"compound_string": "O=c1c(O)c(-c2ccc(O)c(O)c2)oc2cc(O)cc(O)c12", "IC50 at 60 min [µM]": 16.7}

---

# assay_procedure: Plasma protein binding by rapid equilibrium dialysis (human plasma)
# Assay type: in vitro ADME
# experimental_context: human, plasma (20-fold diluted); read-out: fuP (unbound fraction in plasma)

{"compound": "CCOc1cc(CC(=O)N[C@@H](CC(C)C)c2ccccc2N2CCCCC2)ccc1C(=O)O [RPG, Repaglinide]", "fraction unbound at 4 h, 5 μM": 0.0533}

---

# Test system: microsomal metabolism of RPG in HLM
# assay_procedure: In vitro inhibition of RPG metabolism by QCT in HLM
# Assay type: in vitro ADME, human
# experimental_context: read-out: IC50 of QCT on the microsomal metabolism of RPG; HLM 0.5 mg/mL, 3 μM RPG
# Procedure: The intrinsic metabolic clearance (CLint) was calculated as Vmax/Km. […] The parameter α is indicative of the inhibition type. The mixed model is a general equation that includes competitive, uncompetitive, and noncompetitive inhibition as special cases. When α = 1, the mixed model is identical to a noncompetitive inhibition. When α is very large (α→∞) or very small (α→0), the mixed model becomes identical to competitive inhibition or uncompetitive inhibition, respectively.
pIC50: −log10 of the molar value.
measured_quantity: pIC50

{"compound": "O=c1c(O)c(-c2ccc(O)c(O)c2)oc2cc(O)cc(O)c12 [QCT, Quercetin]", "measured_quantity": "pIC50", "endpoint_value": 5.52}

---

# assay_procedure: In vivo oral pharmacokinetic study of RPG without or with QCT in rats
# Design: species or system Sprague-Dawley rats
# experimental_context: Sprague-Dawley, rat, plasma, po, 0.4 mg/kg, rats, RPG 0.4 mg/kg oral, RPG alone; read-out: F (absolute oral bioavailability)
# Procedure: Rats were anesthetized via intramuscular injection of 10 mg/kg zoletil. The femoral vein and artery of the rats were cannulated using a polyethylene tube (BD Medical, Franklin Lakes, NJ, USA). […] For comparison, the extent of absolute oral bioavailability (F; expressed as percent of dose administered) was calculated by dividing the dose-normalized AUC after oral administration by the dose-normalized AUC after intravenous injection. […]

{"compound": "CCOc1cc(CC(=O)N[C@@H](CC(C)C)c2ccccc2N2CCCCC2)ccc1C(=O)O [RPG, Repaglinide]", "bioavailability / %": 50.7}

---

# assay_procedure: In vivo intravenous pharmacokinetic study of RPG without or with QCT in rats
# Parameters: species or system Sprague-Dawley rats
# experimental_context: Sprague-Dawley, rat, plasma, iv, 0.4 mg/kg, RPG 0.4 mg/kg iv with QCT 25 mg/kg iv
measured_quantity: clearance (mL/min/kg)

{"compound": "CCOc1cc(CC(=O)N[C@@H](CC(C)C)c2ccccc2N2CCCCC2)ccc1C(=O)O [RPG, Repaglinide]", "measured_quantity": "clearance", "endpoint_value": 4.36}

---

# assay_procedure: Microsomal protein binding by rapid equilibrium dialysis (RLM)
# Format: in vitro ADME, rat
# experimental_context: rat, liver microsomes; read-out: fuMIC (unbound fraction in liver microsomes)

{"molecule": "CCOc1cc(CC(=O)N[C@@H](CC(C)C)c2ccccc2N2CCCCC2)ccc1C(=O)O [RPG, Repaglinide]", "fraction unbound at 4 h, 5 μM": 0.671}
